- MEASURED_ON: ETB receptors (Homo sapiens)
- Sequence (P24530 27-442): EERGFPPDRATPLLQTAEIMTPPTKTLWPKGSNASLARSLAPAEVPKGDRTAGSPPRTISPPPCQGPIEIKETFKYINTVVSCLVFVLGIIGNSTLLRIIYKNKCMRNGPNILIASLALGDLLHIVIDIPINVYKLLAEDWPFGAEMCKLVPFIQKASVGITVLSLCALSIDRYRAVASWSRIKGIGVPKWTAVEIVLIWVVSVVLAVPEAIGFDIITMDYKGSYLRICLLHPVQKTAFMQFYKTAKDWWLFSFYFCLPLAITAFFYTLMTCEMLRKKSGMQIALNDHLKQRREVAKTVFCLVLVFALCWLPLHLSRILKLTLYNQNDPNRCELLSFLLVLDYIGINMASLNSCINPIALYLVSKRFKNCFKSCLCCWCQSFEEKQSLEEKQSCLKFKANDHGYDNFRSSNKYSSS
- METHOD: AAR-B, inhibition of ET-3 stimulated arachidonic acid release in CHO cells expressing recombinant ETB receptors
- Format: cell-based
- Parameters: expressed in transfected cells; host or cells: Chinese hamster ovary (CHO) cells
- MEASUREMENT_SETUP: ET-3 (1.0 nM) stimulated [3H]arachidonic acid release, read-out: IC50 AAR-B (Antagonist)
pIC50: −log10 of the molar value.
REPORTED_METRIC: pIC50

I. Cc1ccccc1CC(Cc1ccccc1C)C(=O)N[C@](C)(Cc1c[nH]c2ccccc12)C(=O)O
II. C[C@](Cc1c[nH]c2ccccc12)(NC(=O)C(Cc1cccc2ccccc12)Cc1cccc2ccccc12)C(=O)O
q: Lab notebook, comparison: I versus II , higher pIC50 goes to which? # answer = label of selected item
a: II

----------
- MEASURED_ON: ETB receptors (Homo sapiens)
- METHOD: HERBA-B, [125I]-ET-1 binding to recombinant human ETB receptor expressed in CHO-K1 cell membranes
- Set-up: expressed in transfected cells; host or cells: CHO-K1 cells (membranes)
pIC50: −log10 of the molar value.
REPORTED_METRIC: pIC50

q: Look at this compound and give its reported pIC50. Cc1ccccc1CC(Cc1ccccc1C)C(=O)N[C@](C)(Cc1c[nH]c2ccccc12)C(=O)O
a: 5.82

q: Next up: C[C@](Cc1c[nH]c2ccccc12)(NC(=O)C(Cc1ccc2ccccc2c1)Cc1ccc2ccccc2c1)C(=O)O
a: 4.80

q: Next up: C[C@](Cc1c[nH]c2ccccc12)(NC(=O)C(Cc1cccc2c1CCCC2)Cc1cccc2c1CCCC2)C(=O)O
a: 5.85

q: Next up: Cc1cccc(CC(Cc2cccc(C)c2)C(=O)N[C@](C)(Cc2c[nH]c3ccccc23)C(=O)O)c1
a: 5.33

q: Next up: CC(Cc1ccccc1)(NC(=O)C(Cc1cccc2ccccc12)Cc1cccc2ccccc12)C(=O)O (racemic)
a: 5.19

q: Next up: CC(Cc1cccc2ccccc12)(Cc1cccc2ccccc12)C(=O)N[C@](C)(Cc1c[nH]c2ccccc12)C(=O)O
a: 5.00

q: Next up: C[C@](Cc1c[nH]c2ccccc12)(NC(=O)C(Cc1ccccc1)Cc1ccccc1)C(=O)O
a: 4.72

q: Next up: C[C@](Cc1c[nH]c2ccccc12)(NC(=O)C(Cc1ccccc1)Cc1cccc2ccccc12)C(=O)O (stereo partly drawn)
a: 5.66

q: Next up: CC(Cc1ccc(O)cc1)(NC(=O)C(Cc1cccc2ccccc12)Cc1cccc2ccccc12)C(=O)O (racemic)
a: 4.74

q: Next up: C[C@](Cc1c[nH]c2ccccc12)(NC(=O)C(CC1CCCCC1)CC1CCCCC1)C(=O)O
a: 5.13

I. Cc1cccc(CC(Cc2cccc(C)c2C)C(=O)N[C@](C)(Cc2c[nH]c3ccccc23)C(=O)O)c1C
II. C[C@](Cc1c[nH]c2ccccc12)(NC(=O)C(Cc1c(F)c(F)c(F)c(F)c1F)Cc1c(F)c(F)c(F)c(F)c1F)C(=O)O
q: Lab notebook, comparison: I versus II , higher pIC50 goes to which? # answer = label of selected item
a: I
(I: 5.54, II: 4.57)

----------
- MEASURED_ON: endothelin receptor of rabbit renal artery vascular smooth muscle cells (Oryctolagus cuniculus)
- Sequence (A5A8K3 21-427): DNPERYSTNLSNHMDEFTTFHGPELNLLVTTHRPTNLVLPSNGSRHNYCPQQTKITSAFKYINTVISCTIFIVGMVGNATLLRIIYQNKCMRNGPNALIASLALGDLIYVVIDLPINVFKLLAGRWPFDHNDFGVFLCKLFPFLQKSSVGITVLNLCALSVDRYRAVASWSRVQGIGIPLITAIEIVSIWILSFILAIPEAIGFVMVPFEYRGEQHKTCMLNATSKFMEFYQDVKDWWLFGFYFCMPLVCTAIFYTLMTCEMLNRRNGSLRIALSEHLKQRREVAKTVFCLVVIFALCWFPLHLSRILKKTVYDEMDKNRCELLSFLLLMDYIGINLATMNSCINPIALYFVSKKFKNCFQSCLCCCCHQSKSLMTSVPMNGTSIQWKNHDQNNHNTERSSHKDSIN
REPORTED_METRIC: IC50 (µM)

q: Look at this compound and give its reported IC50. C[C@](Cc1c[nH]c2ccccc12)(NCC(Cc1cccc2ccccc12)Cc1cccc2ccccc12)C(=O)O [Example 15]
a: 14

q: Next up: C[C@](Cc1c[nH]c2ccccc12)(NC(=O)C(Cc1cccc2c1CCCC2)Cc1cccc2c1CCCC2)C(=O)O [Example 6]
a: 14
